# Test system: human SMAD7 mRNA
# Experimental Details: Dose-dependent inhibition of human SMAD7 mRNA expression in Hep3B cells (Example 3, Study 1 and 2)
# Type: cell-based
# Assay Conditions: 740 nM, electroporation, approximately 16 hours, Study 2, relative to untreated control cells
Strand notation (5' to 3'): a small letter for the sugar, then the base; units joined by * are phosphorothioate-linked, units joined directly phosphodiester-linked; [ ] holds rarer units or linkages, { } end groups; capitals alone tell only the bases. k = constrained ethyl (cEt); [5mC] = 5-methylcytosine; d = 2'-deoxy (DNA)
Decide using % inhibition of SMAD7 mRNA expression: a value greater than or equal to 30% is 1, a smaller one is -1.

Illustrative cases are given below, each with its answer.
799689 (antisense kT*kG*k[5mC]*dT*dA*d[5mC]*dA*dG*dT*dG*dT*d[5mC]*dA*k[5mC]*k[5mC]*kA) [compound 799689] | 1
799673 (antisense k[5mC]*kT*kG*dA*dT*dT*dA*dA*d[5mC]*dT*dT*dT*d[5mC]*k[5mC]*kT*kT) [compound 799673] | -1
799711 (antisense kG*kG*kT*d[5mC]*dA*dA*dA*d[5mC]*dT*dT*dG*dT*dG*kG*kT*kA) [compound 799711] | 1
799787 (k[5mC]*k[5mC]*kA*dA*dA*dG*d[5mC]*dA*dG*dA*dA*dG*dT*kA*kG*kA; antisense) [compound 799787] | -1
799563 (kA*kA*kA*dA*d[5mC]*dA*dA*dA*d[5mC]*dA*dA*dG*dG*kG*kT*k[5mC]; antisense) [compound 799563] | 1

Now consider a different substance.
Would you say 799671 (antisense kA*kG*kG*dT*dA*dT*dT*dT*dT*dT*dG*dA*dA*kG*kG*k[5mC]) [compound 799671] shows % inhibition of SMAD7 mRNA expression at minimum 30%?
-1

====

The entries below come with measured % inhibition of SMAD7 mRNA expression values attached.
# Tested on: human SMAD7 mRNA
# Experimental Details: Dose-dependent inhibition of human SMAD7 mRNA expression in Hep3B cells (Example 3, Study 1 and 2)
# Format: cell-based
# Assay Conditions: 1250.0 nM, electroporation, approximately 16 hours, Study 1
Strand notation (5' to 3'): a small letter for the sugar, then the base; units joined by * are phosphorothioate-linked, units joined directly phosphodiester-linked; [ ] holds rarer units or linkages, { } end groups; capitals alone tell only the bases. e = 2'-O-(2-methoxyethyl) (MOE); [5mC] = 5-methylcytosine; d = 2'-deoxy (DNA)
Could you give me the number in %? Just the number is fine.

Solved entries:
771733 (antisense eT*eG*eA*e[5mC]*eA*dG*d[5mC]*d[5mC]*dA*d[5mC]*dA*dA*dG*dT*d[5mC]*eA*e[5mC]*eA*eA*e[5mC]) [compound 771733] | 0
771782 (antisense eT*eA*eG*eG*eA*d[5mC]*dT*dG*dG*dA*dA*dG*dA*dG*d[5mC]*eT*eT*eT*eG*eG) [compound 771782] | 9
771509 (antisense eG*eG*e[5mC]*e[5mC]*eT*dG*d[5mC]*dT*d[5mC]*dA*dG*d[5mC]*dT*d[5mC]*dA*e[5mC]*eG*e[5mC]*eT*e[5mC]) [compound 771509] | 0

human SMAD7 mRNA assay, substance 771836 (antisense eT*eG*eT*eT*eG*dA*dG*dG*dA*d[5mC]*dT*d[5mC]*d[5mC]*d[5mC]*d[5mC]*eA*eG*e[5mC]*e[5mC]*eA) [compound 771836] , recorded % inhibition of SMAD7 mRNA expression = 25

The reported % inhibition of SMAD7 mRNA expression value, human SMAD7 mRNA, for 771439 (eG*eG*e[5mC]*eT*eG*d[5mC]*dG*d[5mC]*dG*d[5mC]*d[5mC]*dG*dG*d[5mC]*dG*eG*eG*e[5mC]*eG*e[5mC]; antisense) [compound 771439] reads 24

Observed % inhibition of SMAD7 mRNA expression on human SMAD7 mRNA, entry 771850 (antisense eT*e[5mC]*e[5mC]*e[5mC]*eA*d[5mC]*dT*dT*d[5mC]*dT*d[5mC]*d[5mC]*dT*d[5mC]*dT*eG*eG*e[5mC]*eT*eG) [compound 771850] , equals 8
